Biological target: kinase domain of the human TrkB receptor (amino acids 526-838) (Homo sapiens, UniProt Q16620)
Sequence (Q16620 510-822): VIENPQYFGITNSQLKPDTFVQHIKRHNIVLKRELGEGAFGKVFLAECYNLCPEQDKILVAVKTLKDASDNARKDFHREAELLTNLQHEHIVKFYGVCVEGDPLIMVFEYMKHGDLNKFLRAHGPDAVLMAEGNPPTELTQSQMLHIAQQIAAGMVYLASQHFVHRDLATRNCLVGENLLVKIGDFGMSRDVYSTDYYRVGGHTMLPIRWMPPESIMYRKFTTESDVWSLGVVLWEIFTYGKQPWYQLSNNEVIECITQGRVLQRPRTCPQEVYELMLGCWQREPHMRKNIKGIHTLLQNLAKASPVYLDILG

>  <Smiles repr>
Cc1cc(Nc2nc(N3CC[C@@H](O)C3)nn3cccc23)n[nH]1

>  <Measurement units>
nM

>  <IC50>
38

$$$$
>  <Smiles repr>
Cc1cc(Nc2nc(N3CCCC3)nn3cccc23)n[nH]1

>  <Measurement units>
nM

>  <IC50>
9

$$$$
>  <Smiles repr>
NC1CCN(c2nc(Nc3ccn[nH]3)c3cccn3n2)CC1

>  <Measurement units>
nM

>  <IC50>
312

$$$$

----------
Listing of entries alongside the reported IC50.
Target: kinase domain of the human TrkA receptor (Homo sapiens)
Construct: The kinase domain of the human TrkA receptor is expressed in Sf9 insect cells as a histidine (His)-fusion protein; His; made in house; host or cells: Sf9 insect cells (baculovirus)
Sequence (P04629 510-781 limits assumed): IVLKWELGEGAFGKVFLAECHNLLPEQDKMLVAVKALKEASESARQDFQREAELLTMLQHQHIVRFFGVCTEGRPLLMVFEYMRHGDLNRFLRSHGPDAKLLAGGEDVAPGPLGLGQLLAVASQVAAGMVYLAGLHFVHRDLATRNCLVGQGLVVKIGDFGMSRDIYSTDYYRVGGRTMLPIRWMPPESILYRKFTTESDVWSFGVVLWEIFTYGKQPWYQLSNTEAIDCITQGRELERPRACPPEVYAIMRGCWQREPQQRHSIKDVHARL
Test: TrkA tyrosine kinase assay (33P, polyGluTyr substrate)
Assay type: biochemical
Details: 30 uM ATP, 0.1 mg/ml PGT

>  <Compound>
Cc1cc(Nc2nc(N3CCNCC3)nn3cccc23)n[nH]1

>  <IC50 [nM]>
120

$$$$
>  <Compound>
O=C(CCc1ccccc1)NC1CCN(c2nc(Nc3cc(C4CC4)n[nH]3)c3cccn3n2)CC1

>  <IC50 [nM]>
0.4

$$$$
>  <Compound>
C[C@H]1C[C@@H]1c1cc(Nc2nc(N3CCC(N)CC3)nn3cccc23)[nH]n1

>  <IC50 [nM]>
0.8

$$$$
>  <Compound>
Cc1cc(Nc2nc(N3CC[C@@H](O)C3)nn3cccc23)n[nH]1

>  <IC50 [nM]>
23

$$$$
>  <Compound>
Cc1cc(Nc2nc(N3CCCC3)nn3cccc23)n[nH]1

>  <IC50 [nM]>
5

$$$$
>  <Compound>
CCC(C)c1cc(Nc2nc(N3CCC(N)CC3)nn3cccc23)[nH]n1 (stereo not drawn)

>  <IC50 [nM]>
9

$$$$
>  <Compound>
N[C@H]1CCN(c2nc(Nc3cc(C4CC4)n[nH]3)c3cccn3n2)C1

>  <IC50 [nM]>
5

$$$$
>  <Compound>
NC1CCN(c2nc(Nc3cc(OCC4CC4)n[nH]3)c3cccn3n2)CC1

>  <IC50 [nM]>
1

$$$$
>  <Compound>
NC1CCN(c2nc(Nc3cc(C4CC4)n[nH]3)c3cccn3n2)CC1

>  <IC50 [nM]>
0.6

$$$$
